Items are presented alongside their recorded Specific signal at 500 pg/mL.
# experimental target: T1, recombinant purified FRα (ECL assay calibrator) (human, UniProt P15328 25-234)
# T1 construct: Calibrator of the ECL sandwich assays; also called FRα calibrator; FRα standard
# T1 sequence (P15328 25-234 limits assumed): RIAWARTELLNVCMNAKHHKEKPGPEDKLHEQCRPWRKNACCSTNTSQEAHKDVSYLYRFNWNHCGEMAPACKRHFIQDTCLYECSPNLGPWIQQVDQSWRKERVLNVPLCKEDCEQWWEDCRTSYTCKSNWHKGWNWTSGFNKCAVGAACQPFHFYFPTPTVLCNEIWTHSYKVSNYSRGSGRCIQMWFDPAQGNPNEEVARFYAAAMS
# test: ECL sandwich, FRα calibrator; capture 6A2.G7; binder = detection Ab
measure: Specific signal at 500 pg/mL

| binder | measure | observed |
| --- | --- | --- |
| Monoclonal antibody 24H8.F3 (antibody, mouse IgG1, V domains shown, Murine IgG1 kappa from hybridoma; also called ATCC PTA-123097) VH: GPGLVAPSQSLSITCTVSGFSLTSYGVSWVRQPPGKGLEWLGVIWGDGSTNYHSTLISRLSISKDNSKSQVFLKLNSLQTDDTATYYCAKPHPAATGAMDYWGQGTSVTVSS VL: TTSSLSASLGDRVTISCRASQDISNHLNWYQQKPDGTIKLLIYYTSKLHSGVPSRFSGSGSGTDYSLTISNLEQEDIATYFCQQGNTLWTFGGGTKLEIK | Specific signal at 500 pg/mL | 1870 |
| Monoclonal antibody 6A2.G7 (antibody, mouse IgG1, V domains shown, Murine IgG1 kappa from hybridoma; also called ATCC PTA-123093) VH: GADLVKPGASVKMSCKASGYTFSRYNMHWVKQTPGQGLEWIGTIYPGNGDTSYNEKFKGKATLTADKSSSIVYMQVSSLTSEASAVYYCARDYGSRYALDYWGQGTSVTVSS VL: SSLSASLGDRVTISCRASQDISNYLNWYQQKPDGTVKLLIYYTSRLHSGVPSRFSGSGSGTDYSLTISNLEQEDIATYFCQQGNTLPYTFGGGTKLEIK | Specific signal at 500 pg/mL | 92 |
| Monoclonal antibody 1A8.G11.E7 (antibody, mouse IgG1, V domains shown, Murine IgG1 kappa from hybridoma; also called ATCC PTA-123100) VH: ESGPGLVAPSQSLSITCTVSGFSLTSYGVSWVRQPPGKGLEWLGVIWGDGSTNYHSTLISRLSISKDNSKSQVFLKLNSLQTDDTATYYCAKPHPAATGAMDYWGQGTSVTVSS VL: TQTTSSLSASLGDRVTISCRASQDISNHLNWYQQKPDGTVKLLIYYTSRLHSGVPSRFSGSGSGTDYSLTISNLEQEDIATYFCQQGNTLWTFGGGTKLEIK | Specific signal at 500 pg/mL | 1840 |
| Monoclonal antibody 26A9.C4 (antibody, mouse IgG1, V domains shown, Murine IgG1 kappa from hybridoma; also called ATCC PTA-123092) VH: SGARELVKPGASVKLSCKTSGFTFSSSFISWLKQKPGQSLEWIAWIYGGNGGTSYNQNFTGKAQLTVDTSSSTAYMQFSSLTTEDSAVYYCASETYGNYWYFDVWGAGTTVTVSS VL: QSPASLSASVGDTVTITCRASGNIHNYLAWYQQKQGKSPQLLVYNAKTLADGVPSRFSGSGSGTQYSLKINSLQPEDFGNYYCQHFWSTPYTFGGGTKLEIK | Specific signal at 500 pg/mL | 361 |
| Monoclonal antibody 19D4.B7 (antibody, mouse IgG2a, V domains shown, SULFO-TAG conjugated when used as detection antibody in the ECL assay; also called ATCC PTA-11884) VH: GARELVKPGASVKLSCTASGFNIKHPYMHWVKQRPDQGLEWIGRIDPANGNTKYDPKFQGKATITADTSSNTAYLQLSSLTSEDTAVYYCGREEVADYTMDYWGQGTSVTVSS VL: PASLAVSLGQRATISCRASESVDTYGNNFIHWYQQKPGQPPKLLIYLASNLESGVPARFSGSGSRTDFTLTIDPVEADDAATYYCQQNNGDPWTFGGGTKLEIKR | Specific signal at 500 pg/mL | 4960 |
